assay: chemical genetic growth profiling, strain panel (AID 1159580);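 also: tested at 20 µM; growth read once vehicle control cultures reached saturation at 30 °C; 1 = growth at the plate median or of vehicle wells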
assaySetup: S. cerevisiae deletion strains, growth OD, locus YJR066W, strain TOR1 (second series)
Among all 5,500 compounds or so, about 2,000 (36%) were called active. Not shown: some 18% with an inconclusive outcome. Rule as the data show it: active = normalized growth mostly below about 0.91 (no sharp cut-off); inconclusive = no clear call, values can overlap the other calls; inactive = mostly above about 0.92. The list shows a part of the results.
Would you mind answering with one of these outcomes? active, inactive

> print(dat)
                              compoundsmiles  assignedcategory
 1  Fc1cccc(F)c1NC(=S)Nc1cc(C(F)(F)F)cc(C(F)(F)F)c1          inactive
 2         N#CCC(=O)NNC(=S)Nc1ccc(Cl)c(Cl)c1          inactive
 3  Fc1cccc(Cl)c1CSc1nncn1-c1ccc(OCc2ccccc2)cc1          inactive
 4          C=CCOc1ccc(/C=C/[N+](=O)[O-])cc1            active
 5        O=C(NCCSCc1ccco1)Nc1cc(Cl)cc(Cl)c1          inactive
 6     CC(C)c1ccc(N2C=Nc3ccc(C(C)C)cc3C2)cc1          inactive
 7  CC(=O)c1sc(SCCS(=O)(=O)c2ccc(C)cc2)c2c1CC(C)(C)CC2=O          inactive
 8  Cc1cc(Br)ccc1-n1c(Sc2c([N+](=O)[O-])cc(C(F)(F)F)cc2[N+](=O)[O-])nc2ccccc2c1=O          inactive
 9  Cc1ccc(S(=O)(=O)CCSC2=CC(=O)CC(C)(C)S2)cc1          inactive
10  Cc1c2c(=O)[nH]ncc2c(-c2ccccc2)n1-c1ccc([N+](=O)[O-])cc1          inactive

-- ask Returns: the outcome recorded for "CCOc1ccc(/C=C(\C)[N+](=O)[O-])cc1OC" in this assay.
-- reply active

-- ask // outcome(item) with item = "O=c1c(Cl)c(-n2cccn2)cnn1-c1ccc(Cl)cc1Cl"
-- reply inactive

-- ask Which result was noted for this compound in the test: "Cc1nn(Cc2ccc(C(=O)Sc3ccc(C(F)(F)F)cn3)o2)c(C)c1Br"
-- reply inactive

-- ask Recorded test outcome, item "O=C(NC(=O)c1c(F)cccc1Cl)OCc1ccc(Cl)cc1Cl"
-- reply inactive

-- ask Name the outcome recorded for "O=C(Nc1ccc(C(F)(F)F)cc1)N1CCN(c2ccnc3cc(Cl)ccc23)CC1" in the assay.
-- reply inactive

-- ask Hi, do you know how "CCCc1c(C(=O)Sc2ccccn2)cnn1-c1ccc(Cl)cc1" came out in this test?
-- reply inactive

-- ask For "O=C(NC(=S)Nc1cccc(C(F)(F)F)c1)c1ccc2nonc2c1" , which call appears in the assay record?
-- reply inactive

-- ask Lab log entry: "O=C(c1ccccc1)c1cc(Cl)ccc1NC(=S)Nc1ccc(F)cc1" — outcome as called in the assay?
-- reply inactive

---

assay: chemical genetic growth profiling, strain panel (AID 1159580);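 also: tested at 20 µM; growth read once vehicle control cultures reached saturation at 30 °C; 1 = growth at the plate median or of vehicle wells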
assaySetup: S. cerevisiae deletion strains, growth OD, locus YIL073C, strain SPO22, stronger effect = lower value
Hit rate of the full screen: of about 5,500 compounds, about 2,000 (36%) were called active. Not shown: some 18% with an inconclusive outcome. Some of the results follow.
measurementKind: normalized growth
Provide a numeric answer; units are not to be included.

-- ask Can you share its normalized growth? I mean this molecule: C[C@H]1[C@H]2CCC3C4CC=C5C[C@@H](N(C)C)CC[C@]5(C)C4CC[C@@]32CN1C (some centres undefined)
-- reply 0.957

-- ask // returns reported normalized growth for input "Cc1ccc2cc3c(ccc4ccccc43)c3c2c1CC3"
-- reply 0.906

-- ask Query: normalized growth; subject: CC1(C)C(O)CC(O)C2(C)C1CC(O)C1(C)C2CCC2(C)C(c3ccoc3)CC3OC321 (centres undefined)
-- reply 1.04

-- ask Query: normalized growth; subject: "Nc1ncn([C@@H]2O[C@H](CO)[C@@H](O)[C@H]2O)c(=O)n1"
-- reply 0.973

-- ask Need normalized growth of NCC(O)c1ccc(O)cc1 (centres undefined) , thanks.
-- reply 0.986

-- ask Need normalized growth, item "CC(C)N(C(=O)SCC(Cl)=C(Cl)Cl)C(C)C"
-- reply 1.04

-- ask Could you tell me which normalized growth is on file for "OC[C@@H](O)[C@@H](O[C@@H]1O[C@H](CO)[C@@H](O)[C@H](O)[C@H]1O)[C@H](O)[C@@H](O)CO" ?
-- reply 1.1

-- ask Need normalized growth, item "Oc1c(Br)cc(Br)c2cccnc12"
-- reply 0.15

-- ask # input molecule: CC1(C)C(=O)C=CC2(C)C3CCC4(C)C(c5ccoc5)CC5OC54C3C(O)CC12 (centres undefined) ; wanted: its normalized growth
-- reply 0.999

-- ask Consider the molecule shown here: "CN/C(=C\[N+](=O)[O-])NCCSCc1ccc(CN(C)C)o1" What is its recorded normalized growth?
-- reply 0.98

-- ask I am curious: what normalized growth value has been reported for CC(=O)O[C@@H]1CC2C(C)(C)C(=O)CC[C@]2(C)C2CC[C@]3(C)C(=CC(=O)O[C@H]3c3ccoc3)[C@@]21C (some centres undefined) ?
-- reply 0.977

-- ask For the molecule shown here, CCCC1O[C@@H]2CC3C4CCC5=CC(=O)C=CC5(C)C4[C@@H](O)CC3(C)[C@]2(C(=O)CO)O1 (some centres undefined) , give the reported normalized growth.
-- reply 1.07

-- ask For the molecule "CNc1ccccc1C(=O)O" , what normalized growth is on record?
-- reply 1.09

-- ask Given the entry "NCCNC(=O)c1ccc(Cl)cc1" , report its measured normalized growth.
-- reply 0.94

---

assay: chemical genetic growth profiling, strain panel (AID 1159580);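 also: tested at 20 µM; growth read once vehicle control cultures reached saturation at 30 °C; 1 = growth at the plate median or of vehicle wells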
assaySetup: S. cerevisiae deletion strains, growth OD, locus YML120C, strain ndi1, stronger effect = lower value
About 2,000 (36%) of roughly 5,500 compounds were called active. About 18% were inconclusive and are not listed. This is one part of the list.
Recorded normalized growth for the following compounds
Just the number, please, no unit after it.

Reference set (10 entries):
compound	measurementKind	measuredResult
O=C(O)C1=CCNCC1	normalized growth	1.01
CCCC(C)C1(CC)C(=O)N=C(S)NC1=O (centres undefined)	normalized growth	0.988
CC1(C)CCCC2(C)C3C1[C@@H](O)C2(C)C[C@H]3O (some centres undefined)	normalized growth	1.01
COc1c2c(cc3c1OCO3)CCN(C)C2	normalized growth	1
O=[N+]([O-])c1cc([As](=O)(O)O)ccc1O	normalized growth	0.969
COc1cccc(/C=C/C(=O)O)c1C(C)C	normalized growth	0.979
C=CC(C1=CC(=O)C(OC)=CC1=O)c1ccc(O)cc1 (centres undefined)	normalized growth	1
O=[N+]([O-])c1cc(O)c(O)c([N+](=O)[O-])c1	normalized growth	1.03
Cc1c(O)c(O)cc2c1CC=C1[C@@]2(C)CC[C@@]2(C)C3C[C@](C)(C(=O)O)CC[C@]3(C)CC[C@]12C (some centres undefined)	normalized growth	0.568
Cc1occc(=O)c1O	normalized growth	0.95

-- ask Param item = "C1CCN2C[C@@H]3C[C@H](CN4CCCC[C@@H]34)[C@H]2C1" ; retrieve measured normalized growth.
-- reply 1.01

-- ask What does the record list as normalized growth for "CC(C)=CCC/C(C)=C/CC/C(C)=C/CC/C(C)=C/CC/C(C)=C/CC/C(C)=C/CC/C(C)=C/CC/C(C)=C/CC/C(C)=C/CO" ?
-- reply 0.99

-- ask Please look up its normalized growth: "CC(=O)Nc1cc([As](=O)(O)O)ccc1O"
-- reply 1.01

-- ask // query normalized growth value for entry C=CC(C)(O)CC/C=C(\C)CCC=C(C)C (centres undefined)
-- reply 0.919

-- ask // query normalized growth value for entry C=CCC1(C(C)CCC)C(=O)N=C(S)NC1=O (centres undefined)
-- reply 0.988

-- ask Which normalized growth reading was recorded for the compound O=C(OC1Cc2c(O)cc(O)cc2OC1c1cc(O)c(O)c(O)c1-c1c(C2Oc3cc(O)cc(O)c3CC2OC(=O)c2cc(O)c(O)c(O)c2)cc(O)c(O)c1O)c1cc(O)c(O)c(O)c1 (centres undefined) ?
-- reply 1

-- ask Consider the compound C=CC(C1=CC(=O)C(OC)=CC1=O)c1ccc(OC)cc1 (centres undefined) and give its measured normalized growth.
-- reply 0.911

-- ask Need normalized growth of "Nc1ccc(S(=O)(=O)Nc2ccccn2)cc1" , thanks.
-- reply 1.01

-- ask Can you share its normalized growth? I mean this compound: NCC(O)c1ccc(O)cc1 (centres undefined)
-- reply 1.01

---

assay: chemical genetic growth profiling, strain panel (AID 1159580);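 also: tested at 20 µM; growth read once vehicle control cultures reached saturation at 30 °C; 1 = growth at the plate median or of vehicle wells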
assaySetup: S. cerevisiae deletion strains, growth OD, locus YNL020C, strain ARK1, stronger effect = lower value
About 2,000 (36%) of roughly 5,500 compounds were called active. Another 18% or so got no clear call; they are omitted. The list shows a part of the results.
measurementKind: normalized growth
In your answer, state the number alone without any accompanying words.

A selection of reference data follows.
> print(dat)
                             compoundsmiles  measuredresult
1    Cc1cc(Cl)ccc1NC(=S)NNC(=S)Nc1ccc(F)cc1           0.921
2  N#CC(C#N)=C/C=C(/Sc1ccc(F)c(Cl)c1)c1ccc(Cl)cc1           0.884

-- ask Which measured normalized growth value corresponds to "Cc1cccc(Cl)c1/C=N\NC(N)=S" ?
-- reply 0.904
